method.summary: Solubilization test of compound 1 with surfactants in FaSSIF
Type: physicochemical
reported.conditions: FaSSIF (pH 6.5) with 5 mg VE-TPGS, 50 mg API in 5 mL, 37° C., 2 h; read-out: Concentration of API in vehicle
assay.endpoint: solubility at 2 h (µg/mL)
API: value field is a number in µg/mL; no unit string.

Recall and state the measured solubility at 2 h for NS(=O)(=O)c1cc(NC(=O)Cc2ccccc2Cl)cc2nn(C(F)F)cc12 .
2090

====

method.summary: Solubilization test of compound 1 with surfactants in FaSSIF
Format: physicochemical
reported.conditions: fassif with tween 80; FaSSIF (pH 6.5) with 5 mg Tween 80, 50 mg API in 5 mL, 37° C., 2 h; read-out: Concentration of API in vehicle
assay.endpoint: solubility at 2 h (µg/mL)
Field format: number, assumed µg/mL, no unit text.

Kindly indicate its recorded solubility at 2 h. Item: NS(=O)(=O)c1cc(NC(=O)Cc2ccccc2Cl)cc2nn(C(F)F)cc12
888
